Some compounds, each annotated with its measured growth inhibition.
assay: NCI Yeast Anticancer Drug Screen. Data for the rad50 strain (AID 155);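 also: 0% = growth of vehicle-only cultures of the same strain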; conditions: S. cerevisiae rad50 strain growth inhibition; at 50.0 µM (retest, dose inferred, filed as 5.0); active compounds read high
About 79,000 compounds went through this panel and 15% of them were active in at least one assay; those are over-represented in the sample as a whole. Calls of active or inactive are those of the source. Rule as the data show it: active = growth inhibition above about 70%; inactive = the rest.

{"Compound": "CCN(CC)CCC(=O)Nc1ccc2sc3ccccc3c(=O)c2n1", "Assay Result": "90% (active)"}
{"Compound": "CCC(/C=C/c1ccccc1)=N\\Nc1ccc(Cl)c(Cl)c1", "Assay Result": "89% (active)"}
{"Compound": "N#CSCC1COc2ccccc2O1 (stereo unspecified)", "Assay Result": "89% (active)"}
{"Compound": "O=C(C#Cc1ccccc1)/C=C/c1ccccc1", "Assay Result": "72% (active)"}
{"Compound": "CC(/C=C/c1ccc([N+](=O)[O-])o1)=N/N1CC(CN2CCOCC2)OC1=O (stereo unspecified)", "Assay Result": "90% (active)"}

Read the next record carefully.
The compound identified as CCCCCCCCSC1=C(Cl)C(=O)C(OC)=C(OC)C1=O registered its growth inhibition at 68% (inactive)
